Listed variants paired with reported self-cleavage
B1: HDV Ribozyme (parent)
chain: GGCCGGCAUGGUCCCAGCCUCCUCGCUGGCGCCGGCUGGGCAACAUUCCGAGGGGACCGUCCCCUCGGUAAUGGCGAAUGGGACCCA

Variants of: B1
Test Protocol: self-cleavage, relative activity (ratio to wild type); higher = more cleavage; co-transcriptional
// keep it numeric: no unit symbol after the value

Example cases with answers are listed next.
> print(dat)
                           primary.sequence  endpoint.result
1  GGCCGGCAUGGUCCCAGCCUCCUCGCUGGCGCCGGUUGGGCAACAUUCGGAGGGGACCGUCCCCUCGGUAAUGGCGAAUGGGACCCA [C36U C49G]            0.607
2  GGCCGGCAUGGUCCCAGCCUCCUCGCUGGCGCCGGGUGGGCAACAUUCCGAGGGGACCGUCCCCUCGGUAAUGGCGAAUGGGACCCC [C36G A87C]            0.146
3  GGCCGGCAUGGUCCCAGCCUCCUCGCUGGCGCCGGCUGGGCAACAUUCCGAGGGGACCUUACCCUCGGUAAUGGCGAAUGGGACCCA [G59U C61A]            0.968

Supply reported self-cleavage belonging to this variant: GGCCGGCAUGGUCCCAGCCUCCUGGCUGGCGCCGGCUGGGCAACAUUCCGAGGGGACCGUCCCCCCGGUAAUGGCGAAUGGGACCCA [C24G U65C]
0.224

Supply reported self-cleavage belonging to this variant: GGCCGGCAUGGUCCCAGCCUCUUCGCUGGCGCCGGCUGGGCAAAAUUCCGAGGGGACCGUCCCCUCGGUAAUGGCGAAUGGGACCCA [C22U C44A]
0.0898

Supply reported self-cleavage belonging to this variant: GGCCGGCGUGGUCCCAGCCUCCUCGCUGGCGCCGGCUGGGCAACAUUCCGAGGGGACCGUCCCCUCGGUAAGGGCGAAUGGGACCCA [A8G U72G]
0.536

Supply reported self-cleavage belonging to this variant: GGCCGGCAUGGUCCCAGCCUCCUCGCUGGCGCCGGCUGGCCAACAUUCGGAGGGGACCGUCCCCUCGGUAAUGGCGAAUGGGACCCA [G40C C49G]
0.261

Supply reported self-cleavage belonging to this variant: GGCCGGCAUGGUCCCAGCCUCCUCGCUGGCGCCGGCUAGGCAACAUUCCGAGGGGACCGUCCCCUCGCUAAUGGCGAAUGGGACCCA [G38A G68C]
0.197

Supply reported self-cleavage belonging to this variant: GGCCGGCAUGGUCCCAGCCUCCUCGCUGGCGCCGGCUGGGCAACAUUCUGAGGGGACCGUCCCCUCGGUAAUAGCGAAUGGGACCCA [C49U G73A]
0.716
